Provenance of the data: PubChem BioAssay

- Experiment: splicing luciferase reporter signal modulators, primary screen, spliceosome inhibition project, cell-based, HEK293, splice +/- reporter (AID 1101);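 also: HEK293 cells carrying a splicing-competent luciferase reporter gene; test concentration not given here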
- Condition: luminescence, 24 h, higher = more signal, called active from +8 up or from −8 down
// bucketize z-score: low = under -0.3, moderate = from -0.3 up to 0.05, high = 0.05 and over

Sample answers from the record:
CC(C)(C)OC(=O)CC[C@@]1(C(=O)NCCN2CCOCC2)N=C(c2ccc(OCCCO)cc2)O[C@@H]1c1ccccc1N=[N+]=[N-]
low
COCCOC(=O)N1C(=O)[C@@]2(c3cc(C#CCCO)ccc31)[C@H](c1ccc(OCCO)cc1)N1[C@H](c3ccccc3)[C@H](c3ccccc3)OC(=O)[C@H]1[C@@H]2C(=O)N1CCN(c2ncccn2)CC1
high
COC(=O)C(CC#Cc1ccc2c(c1)[C@]1(C(=O)N2)[C@H](C(=O)O)[C@H]2C(=O)O[C@H](c3ccccc3)[C@H](c3ccccc3)N2[C@@H]1c1ccc(O)cc1)C(=O)OC
high
CC(CO)N1C(=O)[C@@H]2C3C(=O)OCCC/C=C\[C@H]3OC23C=CCN(c2ccc4ccccc4c2)C(=O)[C@@H]13 (some centres not stated)
low
C=CCOC(=O)[C@H]1[C@@H]2C(=O)O[C@@H](c3ccccc3)[C@@H](c3ccccc3)N2[C@@H](c2ccc(OCCOC(=O)[C@@H]3C[C@@H]4C(=O)N5CCC[C@H]5C(=O)N4[C@@H]3c3cccc(OCCO)c3)cc2)[C@]12C(=O)Nc1ccccc12
low

Input line: Class label required: COCCCNC(=O)[C@@]1(Cc2ccccc2)N=C(c2ccc(OCCCO)cc2)O[C@H]1c1ccccc1
Output line: high

Input line: Class label required: COc1ccc(C(=O)Nc2ccc(CN3C(=O)[C@@]4(O[C@@H](CC(=O)N5CCC[C@H]5CO)[C@H]([Si](C)(C)c5ccc(OC)cc5)[C@H]4C)c4ccccc43)cc2)cc1
Output line: low

Input line: Class label required: O=C1OCC=C[C@H]2OC34C=CCN(c5ccc6ccccc6c5)C(=O)[C@H]3N(CCCCCCO)C(=O)[C@@H]4[C@@H]12 (some centres not stated)
Output line: moderate

Input line: Class label required: O=C1[C@H]2C=C(Br)[C@H](C[C@@H]2c2ccccc2)[C@@]12CO2
Output line: high

Input line: Class label required: O=C1NC(=O)C2C1C=CC(C(O)Cc1ccccc1)N2Nc1ccc(Cl)cc1Cl (configuration not stated)
Output line: high

Input line: Class label required: O=C1O[C@H](c2ccccc2)[C@H](c2ccccc2)N2[C@H]1[C@@H](C(=O)Nc1nc3ccccc3s1)[C@]1(C(=O)Nc3ccc(C#CC4(O)CCCCCC4)cc31)[C@H]2c1ccc(OCCO)cc1
Output line: high

Input line: Class label required: C=C(COC)/C(=C/C[C@@H](OC(C)=O)c1ccc(CO)o1)c1cnc2ccccc2c1
Output line: low

Input line: Class label required: COCCOC(=O)N1C(=O)[C@@]2(c3cc(C#Cc4ccc(OC)cc4)ccc31)[C@H](C(N)=O)[C@H]1C(=O)O[C@H](c3ccccc3)[C@H](c3ccccc3)N1[C@@H]2c1ccccc1OCCO
Output line: moderate

Input line: Class label required: COC(=O)[C@@]1(Cc2ccc(F)cc2)[C@H]2c3cc(C(=O)N(C)C)n(CC4CC4)c3C[C@H]2CN1C(=O)c1ccccc1
Output line: low

Input line: Class label required: NC(=O)[C@@H]1[C@H]2C(=O)O[C@H](c3ccccc3)[C@H](c3ccccc3)N2[C@H](c2ccc(O)cc2)[C@@]12C(=O)Nc1ccc(C#CC3(O)CCCCCC3)cc12
Output line: moderate

Input line: Class label required: COC(=O)[C@@]1(Cc2ccccc2)[C@H]2c3cc(C(=O)N(C)C)n(CCSCCO)c3C[C@H]2CN1C(=O)c1ccccc1
Output line: low

Input line: Class label required: C=C/C=C/[C@H]1C(=C)CN([C@@H](Cc2ccccc2)C(=O)OC)[C@@H]1[C@H](O)Cc1ccccc1
Output line: high

Input line: Class label required: CC(C)(C)OC(=O)CC[C@]12N=C(c3ccc(OCCCO)cc3)O[C@H]1c1ccccc1N(CCS(=O)(=O)c1ccccc1)C2=O
Output line: moderate

Input line: Class label required: CCOC(=O)C[C@H]1[C@H](OC(=O)Cc2ccc3c(c2)OCO3)[C@@H](NC(=O)c2ccc(-c3ccccc3)cc2)c2cc(OCCCO)ccc2N1C(=O)c1ccc2ccccc2n1
Output line: low

Input line: Class label required: CCOC1=C2C(CN(S(=O)(=O)c3ccc(C)cc3)C2c2ccc(C)cc2)C2C(=O)N(c3ccccc3)C(=O)C2C1 (configuration not stated)
Output line: moderate

Input line: Class label required: CCCC#C[Si](O[C@H](CC)c1cn([C@H](CO)Cc2ccccc2)nn1)(C(C)C)C(C)C
Output line: moderate

Input line: Class label required: C=CCOC(=O)[C@H]1[C@@H]2C(=O)O[C@@H](c3ccccc3)[C@@H](c3ccccc3)N2[C@@H](c2ccc(OCCOC(=O)[C@H]3C[C@H]4C(=O)N5CCC[C@H]5C(=O)N4[C@H]3c3ccc(O)cc3)cc2)[C@]12C(=O)Nc1ccccc12
Output line: high
